The origin of these recorded values is patent US20260297042A1.

Molecular target: Human PKMYT1 (Homo sapiens)
Construct: Human PKMYT1 75-362 was cloned as a TEV cleavable 6xHis fusion; 6xHis (TEV cleavable) (cleaved yes); made in house; host or cells: bacterial cells
Sequence (Q99640 75-362): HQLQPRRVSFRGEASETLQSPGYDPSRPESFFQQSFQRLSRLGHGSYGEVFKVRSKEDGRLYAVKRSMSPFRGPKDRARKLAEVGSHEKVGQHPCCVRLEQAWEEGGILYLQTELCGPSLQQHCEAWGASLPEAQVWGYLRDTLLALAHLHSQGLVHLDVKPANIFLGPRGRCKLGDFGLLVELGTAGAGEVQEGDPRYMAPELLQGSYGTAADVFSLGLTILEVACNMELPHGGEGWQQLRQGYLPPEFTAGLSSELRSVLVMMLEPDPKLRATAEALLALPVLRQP
Experiment: PKMYT1 biochemical ADP-Glo enzymatic assay
Conditions: ADP-Glo; 15 nM PKMYT1 kinase domain, 500 µM ATP, 60 minutes at 26° C.; banded
reported-property: IC50

• Cc1ccc(O)c(C)c1NC(=O)c1cnc(Nc2ncc3cc(F)ccc3n2)s1 = < 50 nM
• Cc1ccc(O)c(C)c1NC(=O)c1cnc(Nc2ccn(CC(=O)N3CCC4(CC3)CCN(C(=O)OC(C)(C)C)C4)n2)s1 = < 50 nM
• Cc1ccc(O)c(C)c1NC(=O)c1cnc(Nc2cccc(C(=O)N3CC(F)(F)C(F)(F)C3)c2)s1 = 50 to 1000 nM
• Cc1ccc(O)c(C)c1NC(=O)c1cnc(Nc2ccn(CC(=O)NC3CCOCC3)n2)s1 = < 50 nM
• Cc1ccc(O)c(C)c1NC(=O)c1cnc(Nc2ccn(CC(=O)N3CC(F)(F)C(F)(F)C3)n2)s1 = < 50 nM
• Cc1ccc(O)c(C)c1NC(=O)c1cnc(Nc2ccn(CC(=O)N3CCN(C4CCC4)CC3)n2)s1 = 50 to 1000 nM
• Cc1ccc(O)c(C)c1NC(=O)c1cnc(Nc2ccn(CC(=O)N3CCN(C)CC3)n2)s1 = < 50 nM
• Cc1ccc(O)c(C)c1NC(=O)c1cnc(Nc2cc(Cl)nc(C(F)(F)F)n2)s1 = < 50 nM

----------
Molecular target: WEE1 (Homo sapiens)
Construct: purchased Thermo Fisher PR7373A
Sequence (P30291 whole entry): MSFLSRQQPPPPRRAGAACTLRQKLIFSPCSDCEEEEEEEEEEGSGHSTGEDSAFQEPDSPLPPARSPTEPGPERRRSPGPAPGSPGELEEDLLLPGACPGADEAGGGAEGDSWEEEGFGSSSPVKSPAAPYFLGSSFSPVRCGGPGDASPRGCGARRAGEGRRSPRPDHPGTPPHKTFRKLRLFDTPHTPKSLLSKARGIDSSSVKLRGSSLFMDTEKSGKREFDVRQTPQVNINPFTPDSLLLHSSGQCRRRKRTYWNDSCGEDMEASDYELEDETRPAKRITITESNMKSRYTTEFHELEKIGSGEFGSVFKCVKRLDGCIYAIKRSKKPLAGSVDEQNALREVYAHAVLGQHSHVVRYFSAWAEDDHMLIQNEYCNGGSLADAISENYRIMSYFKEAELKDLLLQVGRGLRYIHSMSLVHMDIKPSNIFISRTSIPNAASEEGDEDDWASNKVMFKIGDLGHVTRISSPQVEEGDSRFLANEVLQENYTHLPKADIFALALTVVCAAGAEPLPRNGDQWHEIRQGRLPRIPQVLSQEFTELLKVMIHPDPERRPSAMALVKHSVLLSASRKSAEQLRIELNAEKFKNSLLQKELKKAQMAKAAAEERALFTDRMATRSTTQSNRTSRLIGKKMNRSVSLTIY
Assay: Selectivity versus WEE1 assay (ADP-Glo enzymatic assay)
Type: biochemical
Conditions: WEE1 15 nM; ADP-Glo; banded values
reported-property: IC50

• CCn1nc(Nc2ncc(C(=O)Nc3c(C)ccc(O)c3C)s2)cc1C = 1 to 11 µM
• Cc1ccc(O)c(C)c1NC(=O)c1nnc(Nc2ccn(C3CCC3)n2)s1 = > 11 µM
• Cc1cn(CC(=O)N2CCC(C(F)(F)F)C2)nc1Nc1ncc(C(=O)Nc2c(C)ccc(O)c2C)s1 (centres unmarked) = 1 to 11 µM
• Cc1ccc(O)c(C)c1NC(=O)c1cnc(Nc2cc(Br)n(C)n2)s1 = > 11 µM
• Cc1ccc(O)c(Br)c1NC(=O)c1cnc(Nc2ccn(CC(=O)N3CCCC3)n2)s1 = 1 to 11 µM

----------
Target: Cellular PKMYT1 Biomarker CDK1 pT14 (Homo sapiens, UniProt Q99640)
Construct: read-out CDK1 phospho-T14 immunoblot
Sequence (Q99640 whole entry): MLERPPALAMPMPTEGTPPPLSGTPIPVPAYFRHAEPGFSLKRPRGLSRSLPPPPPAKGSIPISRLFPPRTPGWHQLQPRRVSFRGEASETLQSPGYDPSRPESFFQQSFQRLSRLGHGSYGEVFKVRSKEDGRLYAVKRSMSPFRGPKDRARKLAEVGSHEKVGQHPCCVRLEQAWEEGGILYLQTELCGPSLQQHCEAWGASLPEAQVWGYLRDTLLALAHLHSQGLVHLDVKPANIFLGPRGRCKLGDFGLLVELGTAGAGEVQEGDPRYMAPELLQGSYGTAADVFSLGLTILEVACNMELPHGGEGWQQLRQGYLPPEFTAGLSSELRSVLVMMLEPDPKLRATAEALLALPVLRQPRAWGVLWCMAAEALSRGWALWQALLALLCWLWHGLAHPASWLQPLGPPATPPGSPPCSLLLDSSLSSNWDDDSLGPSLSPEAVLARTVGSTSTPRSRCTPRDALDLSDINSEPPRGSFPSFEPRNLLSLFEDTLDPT
Assay: Inhibition of cellular PKMYT1 biomarker CDK1 pT14 in OVCAR 3 cells (immunoblot)
Format: cell-based
Conditions: 20 hours incubation
pIC50: −log10 of the molar value.
The following molecules are shown together with reported pIC50 values.
reported-property: pIC50

* Cc1ccc(O)c(C)c1NC(=O)c1cnc(Nc2ncnc3[nH]ccc23)s1 [BAA-441] | > 7.00
* Cc1cn(-c2cnn(C(F)F)c2)nc1Nc1ncc(C(=O)Nc2c(C)ccc(O)c2C)s1 [BAA-394] | > 7.00
* Cc1cn(S(=O)(=O)c2ccccc2)nc1Nc1ncc(C(=O)Nc2c(C)ccc(O)c2C)s1 [BAA-379] | > 7.00
* Cc1ccc(O)c(C)c1NC(=O)c1cnc(Nc2cccc(N3CCC(F)(F)CC3)n2)s1 [BAA-314] | > 7.00
* Cc1ccc(O)c(C)c1NC(=O)c1cnc(Nc2ccc3ccncc3n2)s1 [BAA-597] | 6.00 to 7.00
* Cc1ccc(O)c(C)c1NC(=O)c1cnc(Nc2cccc(N(C)C)n2)s1 [BAA-417] | 6.00 to 7.00
* Cc1ccc(O)c(C)c1NC(=O)c1cnc(Nc2cccc(N(C)CCC#N)n2)s1 [BAA-401] | > 7.00
* Cc1cn(CC(=O)N2CCC(C(F)(F)F)C2)nc1Nc1ncc(C(=O)Nc2c(C)ccc(O)c2C)s1 (stereo not drawn) [BAA-504] | 6.00 to 7.00
* Cc1ccc(O)c(C)c1NC(=O)c1cnc(Nc2nn(CC(=O)N3CCCC3)cc2Cl)s1 [BAA-546] | > 7.00
* CCc1cn(CC(F)F)nc1Nc1ncc(C(=O)Nc2c(C)ccc(O)c2C)s1 [BAA-589] | > 7.00
* Cc1ccc(-c2cnn(C)c2)nc1Nc1ncc(C(=O)Nc2c(C)ccc(O)c2C)s1 [BAA-396] | > 7.00
* Cc1ccc(O)c(C)c1NC(=O)c1cnc(Nc2nccc3cccnc23)s1 [BAA-604] | 6.00 to 7.00
* Cc1cn(CC(=O)N(C)CCC#N)nc1Nc1ncc(C(=O)Nc2c(C)ccc(O)c2C)s1 [BAA-523] | 6.00 to 7.00
* Cc1cn(CC(=O)N2CC3(CCC3)C2)nc1Nc1ncc(C(=O)Nc2c(C)ccc(O)c2C)s1 [BAA-381] | > 7.00
* Cc1ccc(O)c(C)c1NC(=O)c1cnc(Nc2ncc(F)cc2F)s1 [BAA-413] | 6.00 to 7.00
* COC[C@H]1CCCN1C(=O)Cn1cc(C)c(Nc2ncc(C(=O)Nc3c(C)ccc(O)c3C)s2)n1 [BAA-599] | 6.00 to 7.00
* Cc1cn(CC(=O)N2CCC2C)nc1Nc1ncc(C(=O)Nc2c(C)ccc(O)c2C)s1 (stereo not drawn) [BAA-598] | > 7.00
* COCCN(C)C(=O)Cn1cc(C)c(Nc2ncc(C(=O)Nc3c(C)ccc(O)c3C)s2)n1 [BAA-549] | > 7.00
* Cc1ccc(O)c(C)c1NC(=O)c1cnc(Nc2cccc(-c3cnn(C)c3)n2)s1 [BAA-390] | > 7.00
* Cc1ccc(O)c(C)c1NC(=O)c1cnc(Nc2cc(C(F)(F)F)nc(N3CCOCC3)n2)s1 [BAA-326] | > 7.00
* Cc1nc(Nc2ncc(C(=O)Nc3c(C)ccc(O)c3C)s2)cc(N2CCOCC2)n1 [BAA-572] | > 7.00
* Cc1ccnc(Nc2ncc(C(=O)Nc3c(C)ccc(O)c3C)s2)c1 [BAA-422] | > 7.00
* CCOc1ccc(Nc2ncc(C(=O)Nc3c(C)ccc(O)c3C)s2)nc1C [BAA-430] | > 7.00
* Cc1ccc(O)c(C)c1NC(=O)c1cnc(Nc2cccc(N3CCN(CCO)CC3)n2)s1 [BAA-432] | > 7.00
